molecular target: Fibroblast growth factor 10 (Homo sapiens) (UniProt O15520); assay: FGF10 binders on small-molecule microarrays, primary screen, biochemical, small-molecule microarray, 635 nm fluorescence (AID 1102); details: FGF10 binding, fluorescence 635 nm, higher = more signal
Sequence (O15520 whole entry, looked up): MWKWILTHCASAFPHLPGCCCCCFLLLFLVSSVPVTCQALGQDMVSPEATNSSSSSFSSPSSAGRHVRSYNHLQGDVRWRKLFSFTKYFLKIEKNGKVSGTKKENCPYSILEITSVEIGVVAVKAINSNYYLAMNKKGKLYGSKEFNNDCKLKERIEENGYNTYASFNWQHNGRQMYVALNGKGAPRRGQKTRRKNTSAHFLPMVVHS
The recorded composite z-score of each item maps onto one of these classes: low end (below 0.2), middle (0.2 to below 0.9), high end (0.9 or more)

Req: Sort into band: `Cc1cccc([C@H]2C[C@H]3C(Br)=C[C@@H]2C(=O)[C@]32CO2)c1`
Resp: low end

Req: Ok, now `O=C(N1CCOCC1)[C@@]1(CCS(=O)(=O)c2ccccc2)N=C(c2ccc(OCCCO)cc2)O[C@H]1c1ccccc1`
Resp: middle

Req: Next entry: `COCC(=C=CC[C@H](O)c1cccc(OCCO)c1)C[C@H](O)COCc1ccccc1`
Resp: high end

Req: Same again, this time with `[N-]=[N+]=NC[C@H](Cc1ccccc1)NC(=O)c1ccccc1`
Resp: low end

Req: Next up: `C=CCNC(=O)[C@@H]1[C@H]2C(=O)O[C@H](c3ccccc3)[C@H](c3ccccc3)N2[C@H](c2ccc(OCCO)cc2)[C@@]12C(=O)N(C(=O)OCCOC)c1ccc(C#CCCO)cc12`
Resp: middle

Req: Entry `O=c1cccc(-c2ccc(F)cc2)o1` please
Resp: high end

Req: Another molecule to check: O=C1C2C=CC(C(O)c3cc(C(F)(F)F)cc(C(F)(F)F)c3)N(Nc3ccccc3F)C2C(=O)N1c1ccccc1 (centres undefined)
Resp: middle

Req: Request: `C=C(C(=O)CC[C@H](OC(=O)c1ccccc1-c1ccccc1C(=O)O)c1ccccc1OCCO)C(C)C`
Resp: middle

Req: Repeat with C=CCC(OC(C)=O)[C@@H]1[C@@H](N(Cc2cccc3ccccc23)C(=O)Cc2ccc(F)cc2)c2cc(OCCCO)ccc2N1C(=O)c1ccc(-c2ccccc2)cc1 (some centres undefined)
Resp: low end

Req: Do the same for `COCCOC(=O)N1C(=O)[C@@]2(c3cc(C#Cc4ccc(OC)cc4)ccc31)[C@H](C(=O)NC[C@H](O)c1ccccc1)[C@H]1C(=O)O[C@H](c3ccccc3)[C@H](c3ccccc3)N1[C@@H]2c1ccc(OCCO)cc1` please
Resp: high end

More entries:
Req: Class (by measured composite z-score) for `COc1ccc(C#Cc2ccc3c(c2)[C@]2(C(=O)N3)[C@H](c3ccc(OCCO)cc3)N3[C@H](c4ccccc4)[C@H](c4ccccc4)OC(=O)[C@H]3[C@@H]2C(=O)N2CCc3cc(OC)c(OC)cc3C2)cc1`
Resp: high end

Req: Consider next the molecule `O=C1[C@@]23C=C(Br)[C@H](C[C@@H]2COC3)[C@@]12CO2` in the same way.
Resp: middle

Req: Another molecule to look at: `COCCOC(=O)N1C(=O)[C@@]2(c3cc(C#CCNC(N)=O)ccc31)[C@H](c1ccc(O)cc1)N1[C@H](c3ccccc3)[C@H](c3ccccc3)OC(=O)[C@H]1[C@@H]2C(=O)N1CCN(c2ncccn2)CC1`
Resp: middle
